Entry source: ChEMBL document CHEMBL4049444

- protocolDetails: Apparent permeability from basolateral to apical side in human Caco2 cells assessed as drug recovery at 5 uM after 1 hr by LC-MS/MS analysis
- Type: ADME, cell-based
- testContext: Caco-2, read-out: Drug recovery
measuredEndpoint: recovery at 1 h, 5 µM (%)

[[record]]
moleculesmiles = "COc1ccc(N(C)c2cnc(SCc3c(F)cccc3F)n2-c2ccc(F)cc2)cc1OC"
readoutnumber = 106


---

- protocolDetails: 1-octanol/phosphate buffer solution partition coefficient, log D of the compound at pH 7.4 for 2 hrs by LC-MS/MS method
- Format: physicochemical
logD at 2 h values, listed per item
measuredEndpoint: logD at 2 h

[[record]]
moleculesmiles = "COc1ccc(N(C)c2cnc(SCc3c(F)cc(C#CC[N+](C)(C)C)cc3F)n2-c2ccc(F)cc2)cc1OC.O=C[O-]"
measuredendpoint = "logD at 2 h"
readoutnumber = 1

[[record]]
moleculesmiles = "COc1ccc(N(C)c2cnc(SCc3c(F)cccc3F)n2-c2ccc(F)cc2)cc1OC"
measuredendpoint = "logD at 2 h"
readoutnumber = 3.5

[[record]]
moleculesmiles = "COc1ccc(N(C)c2cnc(SCc3c(F)cc(OCCCS(=O)(=O)O)cc3F)n2-c2ccc(F)cc2)cc1OC.N"
measuredendpoint = "logD at 2 h"
readoutnumber = 0.8

[[record]]
moleculesmiles = "COc1ccc(N(C)c2cnc(SCc3c(F)cc(OCCC[N+]45CCN(CC4)CC5)cc3F)n2-c2ccc(F)cc2)cc1OC.O=C[O-]"
measuredendpoint = "logD at 2 h"
readoutnumber = 0.9


---

- protocolDetails: Cmax in C57BL6/J mouse liver at 20 mg/kg, po by LC-MS/MS analysis
- Type: ADME, organism-based
- Design: dose 20 mg/kg, route oral
measuredEndpoint: Cmax (nM)

[[record]]
moleculesmiles = "COc1ccc(N(C)c2cnc(SCc3c(F)cc(OCCCS(=O)(=O)O)cc3F)n2-c2ccc(F)cc2)cc1OC.N"
readoutnumber = 385


---

- protocolDetails: Apparent permeability from apical to basolateral side in human Caco2 cells at 5 uM after 1 hr by LC-MS/MS analysis
- Type: ADME, cell-based
- testContext: Caco-2
measuredEndpoint: Papp A→B at 1 h, 5 µM (×10⁻⁶ cm/s)

[[record]]
moleculesmiles = "COc1ccc(N(C)c2cnc(SCc3c(F)cccc3F)n2-c2ccc(F)cc2)cc1OC"
measuredendpoint = "Papp A→B at 1 h, 5 µM"
readoutnumber = 5.32


---

- protocolDetails: Apparent permeability from basolateral to apical side in human Caco2 cells at 10 uM after 1 hr by LC-MS/MS analysis
- Type: ADME, cell-based
- testContext: Caco-2
measuredEndpoint: Papp B→A at 1 h, 10 µM (×10⁻⁶ cm/s)

[[record]]
moleculesmiles = "COc1ccc(N(C)c2cnc(SCc3c(F)cc(C#CC[N+](C)(C)C)cc3F)n2-c2ccc(F)cc2)cc1OC.[I-]"
measuredendpoint = "Papp B→A at 1 h, 10 µM"
outputunit = "×10⁻⁶ cm/s"
readoutnumber = 0.24

[[record]]
moleculesmiles = "COc1ccc(N(C)c2cnc(SCc3c(F)cc(OCCC[N+]45CCN(CC4)CC5)cc3F)n2-c2ccc(F)cc2)cc1OC.O=C[O-]"
measuredendpoint = "Papp B→A at 1 h, 10 µM"
outputunit = "×10⁻⁶ cm/s"
readoutnumber = 0.22

[[record]]
moleculesmiles = "COc1ccc(N(C)c2cnc(SCc3c(F)cc(OCCCS(=O)(=O)O)cc3F)n2-c2ccc(F)cc2)cc1OC.N"
measuredendpoint = "Papp B→A at 1 h, 10 µM"
outputunit = "×10⁻⁶ cm/s"
readoutnumber = 19

